System: Candida albicans ATCC 18804
assay-explanation: MIC assay, Candida standard strain (CLSI M27-A3)
Type: cell-based
conditions-used: ATCC18804, 24 h, 35° C.
Numbered stars: 1 amine (or outer) side, 2 acyl side, 3 side chain; on linkers, the order of the positions; unused ones are H or OH. Bridge positions count the residues as written; N and C are the ends. Square brackets hold non-standard residues; d marks the D form. Peptide text beside a SMILES is read from it. * marks the point of attachment. Orn(4R-OH,5R-OCH2CH2NMe3+) = C[N+](C)(C)CCO[C@@H](N[*:3])[C@H](O)C[C@H](N[*:1])C(=O)[*:2]; pTerphenylCO(4''-OnC5H11) = CCCCCOc1ccc(-c2ccc(-c3ccc(C(=O)*)cc3)cc2)cc1; hTyr(3S-OH,4S-OH) = N[C@H](C(=O)O)[C@H](O)[C@@H](O)c1ccc(O)cc1; X4 = CCCCCOc1c(F)cc(C#Cc2ccc3cc(C(=O)*)ccc3c2)cc1F; Pro(3S-OH,4S-Me) = C[C@H]1CN[C@H](C(=O)O)[C@H]1O; Hyp = O=C(O)[C@@H]1C[C@@H](O)CN1
measurement-label: MIC

CCCCCOc1c(F)cc(C#Cc2ccc3cc(C(=O)N[C@H]4C[C@@H](O)[C@@H](OCC[N+](C)(C)C)NC(=O)[C@@H]5[C@@H](O)[C@@H](C)CN5C(=O)[C@H]([C@@H](C)O)NC(=O)[C@H]([C@H](O)[C@@H](O)c5ccc(O)cc5)NC(=O)[C@@H]5C[C@@H](O)CN5C(=O)[C@H]([C@@H](C)O)NC4=O)ccc3c2)cc1F [Example 14] (X4-[Orn(4R-OH,5R-OCH2CH2NMe3+)]T[Hyp][hTyr(3S-OH,4S-OH)]T[Pro(3S-OH,4S-Me)]; lactam 1-C)    ≤ 0.015 µg/mL

Moving on to the next compound.
response.value for CCCCCOc1ccc(-c2ccc(-c3ccc(C(=O)N[C@H]4C[C@@H](O)[C@@H](OCC[N+](C)(C)C)NC(=O)[C@@H]5[C@@H](O)[C@@H](C)CN5C(=O)[C@H]([C@@H](C)O)NC(=O)[C@H]([C@H](O)[C@@H](O)c5ccc(O)cc5)NC(=O)[C@@H]5C[C@@H](O)CN5C(=O)[C@H]([C@@H](C)O)NC4=O)cc3)cc2)cc1 [Rezafungin, rezafungin, reference compound] ({pTerphenylCO(4''-OnC5H11)}-[Orn(4R-OH,5R-OCH2CH2NMe3+)]T[Hyp][hTyr(3S-OH,4S-OH)]T[Pro(3S-OH,4S-Me)]; lactam 1-C) (field: MIC) = ≤ 0.015 µg/mL

====

Listing of recorded MIC by entry.
Test system: Candida albicans CMCC 98001
assay-explanation: MIC assay, Candida standard strain (CLSI M27-A3)
Format: cell-based
conditions-used: CMCC98001, 24 h, 35° C.
Numbered stars: 1 amine (or outer) side, 2 acyl side, 3 side chain; on linkers, the order of the positions; unused ones are H or OH. Bridge positions count the residues as written; N and C are the ends. Square brackets hold non-standard residues; d marks the D form. Peptide text beside a SMILES is read from it. * marks the point of attachment. Orn(4R-OH,5R-OCH2CH2NMe3+) = C[N+](C)(C)CCO[C@@H](N[*:3])[C@H](O)C[C@H](N[*:1])C(=O)[*:2]; pTerphenylCO(4''-OnC5H11) = CCCCCOc1ccc(-c2ccc(-c3ccc(C(=O)*)cc3)cc2)cc1; hTyr(3S-OH,4S-OH) = N[C@H](C(=O)O)[C@H](O)[C@@H](O)c1ccc(O)cc1; Pro(3S-OH,4S-Me) = C[C@H]1CN[C@H](C(=O)O)[C@H]1O; X3 = CCCCCOc1ccc(C#Cc2ccc3cc(C(=O)*)ccc3c2)cc1F; Hyp = O=C(O)[C@@H]1C[C@@H](O)CN1

CCCCCOc1ccc(-c2ccc(-c3ccc(C(=O)N[C@H]4C[C@@H](O)[C@@H](OCC[N+](C)(C)C)NC(=O)[C@@H]5[C@@H](O)[C@@H](C)CN5C(=O)[C@H]([C@@H](C)O)NC(=O)[C@H]([C@H](O)[C@@H](O)c5ccc(O)cc5)NC(=O)[C@@H]5C[C@@H](O)CN5C(=O)[C@H]([C@@H](C)O)NC4=O)cc3)cc2)cc1 [Rezafungin, rezafungin, reference compound] ({pTerphenylCO(4''-OnC5H11)}-[Orn(4R-OH,5R-OCH2CH2NMe3+)]T[Hyp][hTyr(3S-OH,4S-OH)]T[Pro(3S-OH,4S-Me)]; lactam 1-C)    ≤ 0.015 µg/mL

Moving on to the next compound.
The compound CCCCCOc1ccc(C#Cc2ccc3cc(C(=O)N[C@H]4C[C@@H](O)[C@@H](OCC[N+](C)(C)C)NC(=O)[C@@H]5[C@@H](O)[C@@H](C)CN5C(=O)[C@H]([C@@H](C)O)NC(=O)[C@H]([C@H](O)[C@@H](O)c5ccc(O)cc5)NC(=O)[C@@H]5C[C@@H](O)CN5C(=O)[C@H]([C@@H](C)O)NC4=O)ccc3c2)cc1F [Example 10] (X3-[Orn(4R-OH,5R-OCH2CH2NMe3+)]T[Hyp][hTyr(3S-OH,4S-OH)]T[Pro(3S-OH,4S-Me)]; lactam 1-C) , tested on Candida albicans CMCC 98001, showed MIC of ≤ 0.015 µg/mL
